assayedTarget: T1, AP6-AA
T1 chain: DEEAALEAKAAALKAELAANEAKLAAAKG
testProtocol: two-hybrid library CCmax;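 note: natural log of median RNA to DNA barcode read ratio; higher means stronger binding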
conditionContext: mean of both orientations

{"binder": "DELAAIEAELAAEEAENAALEAEAAALEG [AP1-AA]", "interaction score": -2.13}
{"binder": "DENAALEAKIAALKAKNAALKAEIAALEG [4H1401-AA]", "interaction score": -1.73}
{"binder": "ASIRRLEQEVNQERSRMAYLQTLLAKIEQ [4H_BCR]", "interaction score": -1.75}
{"binder": "DELAANEAELAAEEAKLAAAKAKAAALKG [AP4-AA]", "interaction score": -2.03}
{"binder": "DKNAALKAEIAALEAENAALEAKIAALKG [4H3606-AA]", "interaction score": -0.593}
